Target: ASCT-2 transporter (Rattus norvegicus)
Sequence (D3ZJ25 1-555): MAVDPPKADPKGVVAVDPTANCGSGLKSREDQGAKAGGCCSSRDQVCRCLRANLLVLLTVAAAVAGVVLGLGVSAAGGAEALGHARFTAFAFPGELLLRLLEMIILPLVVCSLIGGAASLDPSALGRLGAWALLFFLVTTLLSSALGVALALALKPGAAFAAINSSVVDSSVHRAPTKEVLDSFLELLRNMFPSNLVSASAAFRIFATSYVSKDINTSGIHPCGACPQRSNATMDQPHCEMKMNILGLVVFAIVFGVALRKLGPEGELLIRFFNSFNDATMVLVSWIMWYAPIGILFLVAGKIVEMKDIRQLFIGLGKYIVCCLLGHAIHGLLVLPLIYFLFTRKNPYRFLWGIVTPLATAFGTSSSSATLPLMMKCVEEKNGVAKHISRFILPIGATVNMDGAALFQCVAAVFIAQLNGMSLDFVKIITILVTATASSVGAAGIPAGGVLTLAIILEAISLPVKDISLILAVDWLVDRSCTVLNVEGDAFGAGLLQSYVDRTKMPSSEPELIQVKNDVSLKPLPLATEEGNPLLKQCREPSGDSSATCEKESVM
Test: [3H]glutamine uptake concentration dependency
test-readout: Ki (µM)

P: N[C@@H](CCC(=O)Nc1ccc(-c2ccc(F)cc2)cc1)C(=O)O [FBPG]
Q: N[C@@H](CCC(=O)Nc1ccc(F)cc1)C(=O)O [FPG, N5-(4-fluorophenyl)glutamine]
Problem: Field: entry with larger Ki (options P / Q ). Return value: the label identifying the chosen record.
Result: P
(P: 1420 µM, Q: 850 µM)
